Test system: Septoria tritici isolates containing the G143A in the cytochrome b gene
Experiment: Glass house Trial 3: control of leaf blotch on wheat caused by two Septoria tritici isolates containing G143A
Type: in vivo
Conditions: Resistant Septoria tritici isolate 2 (G143A mutation), 25 ppm, % diseased leaf area after about 28 days
This listing pairs molecules with measured Disease level (%).
Give the quantity in %, number only.

Sample records with Disease level (%):
Molecule: Cn1nnn(-c2ccccc2COc2ccn(-c3ccc(Cl)cc3)n2)c1=O [Compound I-211]
Readout: Disease level (%)
Unit of measure: %
Result value: 10
--
Molecule: CON=C(C(=O)OC)c1ccccc1CON=C(C)c1cccc(C(F)(F)F)c1 [Trifloxystrobin, reference compound]
Readout: Disease level (%)
Unit of measure: %
Result value: 70
--
Molecule: CNC(=O)C(=NOC)C(C)=CCOc1ccn(-c2ccc(F)cc2Cl)n1 [Compound I-14]
Readout: Disease level (%)
Unit of measure: %
Result value: 70
--
Molecule: COC(=O)N(OC)c1ccccc1COc1ccn(-c2ccc(Cl)cc2)n1 [Pyraclostrobin, reference compound]
Readout: Disease level (%)
Unit of measure: %
Result value: 60
--
Molecule: CO/C=C(C(=O)OC)\C(C)=C/COc1ccn(-c2ccc(Cl)cc2)n1 [Compound I-7]
Readout: Disease level (%)
Unit of measure: %
Result value: 15
--
Molecule: CNC(=O)C(=NOC)C(C)=CCOc1ccn(-c2ccc(F)cc2F)n1 [Compound I-11]
Readout: Disease level (%)
Unit of measure: %
Result value: 50

Now look at this entry.
Septoria tritici isolates containing the G143A in the cytochrome b gene / Disease level (%) / CNC(=O)C(=N/OC)/C(C)=C\COc1ccn(-c2ccc(Cl)cc2)n1 [Compound I-6] : value?
15
